Origin of the recorded values: the supplement of paper PMC10567573

protein stability index overview
B1: PTPLAD1 (parent)
chain: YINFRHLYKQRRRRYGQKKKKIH

Variants of: B1
Assay: protein stability index of a GFP-peptide fusion (GPS, HEK-293T) (PSI 1-6); higher = more stable;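 note: lentivirally expressed fusions sorted by FACS into six bins by GFP to DsRed ratio, PSI derived from sequencing read proportions per bin multiplied by bin number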
Conditions: c terminus: native

>>> observed_value("YINFRHLYKQRRRRYGQKKPKIH [K20P]")
2
>>> observed_value("YMNFRHLYKQRRRRYGQKKKKIH [I2M]")
2

Q) Returns the measured protein stability index for the input variant. Input: YVNFRHLYKQRRRRYGQKKKKIH [I2V]
A) 1.97

Q) Thanks! And YIKFRHLYKQRRRRYGQKKKKIH [N3K] ?
A) 1.97

Q) // repeat for YINFRHLYKQRRRRYGQKKTKIH [K20T] and report
A) 1.99

Q) What about YRNFRHLYKQRRRRYGQKKKKIH [I2R] ?
A) 2.05
